Taken from patent US7173027B2.

# TESTED SYSTEM: CB2 receptor (Mus musculus, UniProt P47936)
# Construct: membranes were prepared from frozen mouse spleen; from tissue; host or cells: frozen mouse spleen membranes
# Sequence (P47936 whole entry): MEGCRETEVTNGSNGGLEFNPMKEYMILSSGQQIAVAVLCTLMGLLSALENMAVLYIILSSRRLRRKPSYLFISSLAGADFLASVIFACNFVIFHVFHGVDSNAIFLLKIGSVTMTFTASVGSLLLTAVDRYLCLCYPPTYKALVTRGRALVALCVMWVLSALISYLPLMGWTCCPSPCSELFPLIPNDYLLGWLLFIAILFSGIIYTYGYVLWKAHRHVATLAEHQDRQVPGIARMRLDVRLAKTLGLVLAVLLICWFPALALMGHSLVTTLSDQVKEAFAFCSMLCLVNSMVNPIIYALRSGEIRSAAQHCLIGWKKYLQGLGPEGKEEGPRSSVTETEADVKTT
# TEST PROTOCOL: CB2 receptor binding, mouse spleen membranes, [3H]CP-55,940 displacement
# STUDY CONDITIONS: Table 2; mouse spleen membranes; read-out: Ki nM CB2
Give Ki for every item shown.
Give bare numbers, in nM.

Worked cases, Ki given:
CN1CCCCC1Cn1cc(C(=O)c2cc(C#N)ccc2I)c2ccccc21 (stereo not shown) [2-45] ... 15.8
CN1CCCCC1Cn1cc(C(=O)c2cc3ccccc3cn2)c2ccccc21 (stereo not shown) [2-40] ... 14.5
CN1CCCCC1Cn1cc(C(=O)c2cnc3ccccc3n2)c2ccccc21 (stereo not shown) [2-41] ... 160
CN1CCCCC1Cn1cc(C(=O)c2cc(C(N)=O)ccc2I)c2ccccc21 (stereo not shown) [2-48] ... 47.2
CN1CCCCC1Cn1cc(C(=O)c2ccnc3ccccc23)c2ccccc21 (stereo not shown) [2-38] ... 747

Dear colleague, could you please provide Ki for the compounds listed below?
1. O=C(c1cccc([N+](=O)[O-])c1I)c1cn(CC2COCCN2Cc2ccccc2)c2ccccc12 (stereo not shown) [2-27]
2. CN1CCOCC1Cn1cc(C(=O)c2ccccc2I)c2ccccc21 (stereo not shown) [2-28]
3. CN1CCOCC1Cn1cc(C(=O)c2cccc3ccccc23)c2ccccc21 (stereo not shown) [2-31]
4. CN1CCCCC1Cn1cc(C(=O)c2cnc3ccccc3c2)c2ccccc21 (stereo not shown) [2-36]

928
226
26.6
8.53

Hello, I am looking for reported Ki with CB2 receptor (Mus musculus, UniProt P47936) for CN1CCCCC1Cn1cc(C(=O)c2cncc3ccccc23)c2ccccc21 (stereo not shown) [2-44] . Could you help? 7.04

---

# TESTED SYSTEM: CB1 receptor (Rattus norvegicus)
# Construct: membranes were prepared from rat forebrain membranes; from tissue; host or cells: rat forebrain membranes
# Sequence (P20272 whole entry): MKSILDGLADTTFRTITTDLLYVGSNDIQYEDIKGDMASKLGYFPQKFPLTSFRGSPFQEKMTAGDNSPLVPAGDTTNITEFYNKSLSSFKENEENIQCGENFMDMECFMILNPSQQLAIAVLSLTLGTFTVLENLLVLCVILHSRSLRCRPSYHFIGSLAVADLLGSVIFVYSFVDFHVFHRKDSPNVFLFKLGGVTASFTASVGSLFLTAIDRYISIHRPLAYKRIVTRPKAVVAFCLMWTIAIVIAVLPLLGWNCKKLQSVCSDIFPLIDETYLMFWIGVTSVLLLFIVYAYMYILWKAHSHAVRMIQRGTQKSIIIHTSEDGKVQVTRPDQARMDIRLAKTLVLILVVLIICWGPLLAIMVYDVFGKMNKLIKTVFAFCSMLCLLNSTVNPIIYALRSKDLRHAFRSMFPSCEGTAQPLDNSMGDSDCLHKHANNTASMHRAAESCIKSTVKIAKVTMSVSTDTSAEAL
# TEST PROTOCOL: CB1 receptor binding, rat forebrain membranes, [3H]CP-55,940 displacement
# STUDY CONDITIONS: Ki nM CB1, Table 1, 0.8 nM [3H]CP-55,940
TEST READOUT: Ki (nM)
Answers are plain numbers, in nM.

I have this compound here, CN1CCCC[C@@H]1Cn1cc(C(=O)c2cc([N+](=O)[O-])ccc2I)c2ccccc21 [2-7(R)] , and I need its recorded Ki. 285

---

# TESTED SYSTEM: CB2 receptor (Mus musculus)
# Construct: membranes were prepared from frozen mouse spleen; from tissue; host or cells: frozen mouse spleen membranes
# TEST PROTOCOL: CB2 receptor binding, mouse spleen membranes, [3H]CP-55,940 displacement
# STUDY CONDITIONS: Table 2; mouse spleen membranes; read-out: Ki nM CB2
TEST READOUT: log10 Ki (log10 of the value in nM)
Plainly stated, the numbers are log10 of Ki given in nM.

Worked cases, log10 Ki given:
CN1CCCCC1Cn1cc(C(=O)c2cc(C#N)ccc2I)c2ccccc21 (stereo not shown) [2-46] ... 1.19
O=C(c1cc([N+](=O)[O-])ccc1I)c1cn(CC2COCCN2Cc2ccccc2)c2ccccc12 (stereo not shown) ... 3.16
CN1CCCCC1Cn1cc(C(=O)c2cc(O)ccc2I)c2ccccc21 (stereo not shown) ... 1.27
CN1CCCCC1Cn1cc(C(=O)c2cc(C(=O)O)ccc2I)c2ccccc21 (stereo not shown) ... 1.27
CN1CCOCC1Cn1cc(C(=O)c2cccc([N+](=O)[O-])c2I)c2ccccc21 (stereo not shown) ... 2.19

Dear colleague, could you please provide log10 Ki for the compounds listed below?
1. CN1CCCCC1Cn1cc(C(=O)c2cc([N+](=O)[O-])ccc2I)c2ccccc21 (racemic) [2-32(R,S)]
2. CN1CCCCC1Cn1cc(C(=O)c2ccccn2)c2ccccc21 (stereo not shown)
3. CN1CCCCC1Cn1cc(C(=O)c2cccc[n+]2[O-])c2ccccc21 (stereo not shown)
4. O=C(c1ccccc1I)c1cn(CC2COCCN2Cc2ccccc2)c2ccccc12 (stereo not shown)

[0.53, 2.17, 3.27, 3.26]

Dear colleague, could you please provide log10 Ki for the compounds listed below?
1. CN1CCCCC1Cn1cc(C(=O)c2cccs2)c2ccccc21 (stereo not shown)
2. CN1CCCCC1Cn1cc(C(=O)c2ccc3ccccc3n2)c2ccccc21 (stereo not shown)

1: 1.29; 2: 1.32

Dear colleague, could you please provide log10 Ki for the compounds listed below?
1. CN1CCOCC1Cn1cc(C(=O)c2cc([N+](=O)[O-])ccc2I)c2ccccc21 (stereo not shown)
2. CN1CCCCC1Cn1cc(C(=O)c2cnccn2)c2ccccc21 (stereo not shown)

1: 1.68; 2: 2.92

---

Give Ki for every item shown.
# TESTED SYSTEM: human CB2 receptors (Homo sapiens, UniProt P34972)
# Construct: using the below described procedure with human tissue samples; from tissue
# Sequence (P34972 whole entry): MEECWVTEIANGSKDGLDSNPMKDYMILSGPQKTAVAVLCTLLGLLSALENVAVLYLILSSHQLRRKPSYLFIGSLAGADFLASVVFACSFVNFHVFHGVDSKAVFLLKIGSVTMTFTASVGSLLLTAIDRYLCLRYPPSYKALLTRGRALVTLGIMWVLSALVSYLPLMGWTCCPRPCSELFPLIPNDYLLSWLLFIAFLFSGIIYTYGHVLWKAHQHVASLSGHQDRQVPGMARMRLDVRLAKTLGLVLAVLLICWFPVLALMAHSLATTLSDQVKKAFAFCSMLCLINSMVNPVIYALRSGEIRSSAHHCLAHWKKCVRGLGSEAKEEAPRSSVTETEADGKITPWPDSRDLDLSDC
# TEST PROTOCOL: Binding affinity to human CB2 receptors, human tissue samples
# STUDY CONDITIONS: Table 2; human CB2; read-out: Ki nM CB2 (Human)
Numbers only, in nM.

CN1CCCCC1Cn1cc(C(=O)c2cc([N+](=O)[O-])ccc2I)c2ccccc21 (racemic) [2-32(R,S)] ... 13.6

Now for the compound whose Ki we want.
I have this compound here, CN1CCCCC1Cn1cc(C(=O)c2ccccc2I)c2ccccc21 (racemic) [2-34(R,S)] , and I need its recorded Ki. 2.49

---

# TESTED SYSTEM: human CB2 receptors (Homo sapiens, UniProt P34972)
# Construct: using the below described procedure with human tissue samples; from tissue
# TEST PROTOCOL: Binding affinity to human CB2 receptors, human tissue samples
# STUDY CONDITIONS: Table 1; human CB2, human tissue samples; read-out: Ki nM CB2 (human)
TEST READOUT: Ki (nM)
Numbers only, in nM.

Hello, I am looking for reported Ki with human CB2 receptors (Homo sapiens, UniProt P34972) for CN1CCCCC1Cn1cc(C(=O)c2cc([N+](=O)[O-])ccc2I)c2ccccc21 (racemic) [2-7(R, S)] . Could you help? 1.6

---

Give Ki for every item shown.
# TESTED SYSTEM: CB1 receptor (Rattus norvegicus)
# Construct: membranes were prepared from rat forebrain membranes; from tissue; host or cells: rat forebrain membranes
# TEST PROTOCOL: CB1 receptor binding, rat forebrain membranes, [3H]CP-55,940 displacement
# STUDY CONDITIONS: Table 2, 0.8 nM [3H]CP-55,940, read-out: Ki nM CB1
Answers are plain numbers, in nM.

Worked cases, Ki given:
O=C(c1cc([N+](=O)[O-])ccc1I)c1cn(CC2COCCN2Cc2ccccc2)c2ccccc12 (centres unmarked) ... 4210
CN1CCCCC1Cn1cc(C(=O)c2cc(O)ccc2I)c2ccccc21 (centres unmarked) ... 29.1
CN1CCCCC1Cn1cc(C(=O)c2cncc3ccccc23)c2ccccc21 (centres unmarked) ... 16.9

Dear colleague, could you please provide Ki for the molecules listed below?
1. O=C(c1ccccc1I)c1cn(CC2COCCN2Cc2ccccc2)c2ccccc12 (centres unmarked)
2. CN1CCOCC1Cn1cc(C(=O)c2ccccc2I)c2ccccc21 (centres unmarked)

1. 1220
2. 27.9
